# assayed target: DNA gyrase (Escherichia coli) (UniProt P0AES6+P0AES4)
# protocol summary: Poison activity at Escherichia coli DNA gyrase assessed as stabilization of DNA cleavage complex by measuring linear plasmid DNA formation relative to control
# Assay type: protein-complex assay
The source made the active and inactive calls. The calls are words filed in the database; no cut-off is given here.
Outcome codes: active, inactive

smiles: COc1c(N2CC[C@@H](CN)C2)c(F)cc2c(=O)c(C(=O)O)cn(C3CC3)c12
group label: active
//
smiles: Cc1c(N2CC[C@@H](CN)C2)c(F)cc2c(=O)n(CCN)c(=O)n(C3CC3)c12
group label: active
//
smiles: Cc1c(N2CC[C@@H](CN)C2)c(F)cc2c(=O)n(CCNC(=N)N)c(=O)n(C3CC3)c12
group label: active
//
smiles: Cc1c(N2CC[C@@H](CN)C2)c(F)cc2c(=O)n(N)c(=O)n(C3CC3)c12
group label: active
//
smiles: CCOC(=O)c1cnn2c(=O)n(CC)c3cc(N4CC[C@@H](CN)C4)c(F)cc3c12
group label: inactive

* * *

# assayed target: DNA gyrase (Escherichia coli, UniProt P0AES4+P0AES6)
# protocol summary: Inhibition of Escherichia coli DNA gyrase assessed as supercoiling activity by fluorescence assay relative to control
pIC50: −log10 of the molar value.

smiles: Cc1c(N2CC[C@@H](CN)C2)c(F)cc2c(=O)n(N)c(=O)n(C3CC3)c12
comparison symbol: =
pIC50: 6.02
//
smiles: COc1c(N2CC[C@@H](CN)C2)c(F)cc2c(=O)n(CCN)c(=O)n(C3CC3)c12
comparison symbol: <
pIC50: 4.30
//
smiles: COc1c(N2CC[C@@H](CN)C2)c(F)cc2c(=O)n(CCNC(=N)N)c(=O)n(C3CC3)c12
comparison symbol: <
pIC50: 4.30
//
smiles: CCn1c(=O)n2nc(C(=O)O)cc2c2cc(F)c(N3CC[C@@H](CN)C3)cc21
comparison symbol: <
pIC50: 4.30
//
smiles: N=C(N)NCCn1c(=O)c2cc(F)c(N3CC[C@@H](CN)C3)cc2n(C2CC2)c1=O
comparison symbol: <
pIC50: 4.30
//
smiles: Cc1c(N2CC[C@@H](CN)C2)c(F)cc2c(=O)n(CCN)c(=O)n(C3CC3)c12
comparison symbol: =
pIC50: 4.75
//
smiles: CCOC(=O)c1cnn2c(=O)n(CC)c3cc(N4CC[C@@H](CN)C4)c(F)cc3c12
comparison symbol: =
pIC50: 5.46
//
smiles: CCOC(=O)c1cc2c3cc(F)c(N4CC[C@@H](CN)C4)cc3n(CC)c(=O)n2n1
comparison symbol: <
pIC50: 4.30
//
smiles: COc1c(N2CC[C@@H](CN)C2)c(F)cc2c(=O)c(C(=O)O)cn(C3CC3)c12
comparison symbol: =
pIC50: 6.92
//
smiles: Cc1c(N2CC[C@@H](CN)C2)c(F)cc2c(=O)n(CCNC(=N)N)c(=O)n(C3CC3)c12
comparison symbol: =
pIC50: 4.94
//
smiles: NCCn1c(=O)c2cc(F)c(N3CC[C@@H](CN)C3)cc2n(C2CC2)c1=O
comparison symbol: <
pIC50: 4.30
